IC50 values by entry
molecular target: α4β1 integrin (Homo sapiens (Human), UniProt P05556+P13612); experiment: Integrin Adhesion Assay: Protocol 5 (VCAM-coated plate, RPMI-8866 cells with stable LOF mutation of the ITGB7 gene); type: cell-based; conditions: Protocol 5; RPMI-8866 cells with LOF mutation of ITGB7, VCAM; read-out: Mean IC50 α4β1 KO
Sequence (P13612 34-1032): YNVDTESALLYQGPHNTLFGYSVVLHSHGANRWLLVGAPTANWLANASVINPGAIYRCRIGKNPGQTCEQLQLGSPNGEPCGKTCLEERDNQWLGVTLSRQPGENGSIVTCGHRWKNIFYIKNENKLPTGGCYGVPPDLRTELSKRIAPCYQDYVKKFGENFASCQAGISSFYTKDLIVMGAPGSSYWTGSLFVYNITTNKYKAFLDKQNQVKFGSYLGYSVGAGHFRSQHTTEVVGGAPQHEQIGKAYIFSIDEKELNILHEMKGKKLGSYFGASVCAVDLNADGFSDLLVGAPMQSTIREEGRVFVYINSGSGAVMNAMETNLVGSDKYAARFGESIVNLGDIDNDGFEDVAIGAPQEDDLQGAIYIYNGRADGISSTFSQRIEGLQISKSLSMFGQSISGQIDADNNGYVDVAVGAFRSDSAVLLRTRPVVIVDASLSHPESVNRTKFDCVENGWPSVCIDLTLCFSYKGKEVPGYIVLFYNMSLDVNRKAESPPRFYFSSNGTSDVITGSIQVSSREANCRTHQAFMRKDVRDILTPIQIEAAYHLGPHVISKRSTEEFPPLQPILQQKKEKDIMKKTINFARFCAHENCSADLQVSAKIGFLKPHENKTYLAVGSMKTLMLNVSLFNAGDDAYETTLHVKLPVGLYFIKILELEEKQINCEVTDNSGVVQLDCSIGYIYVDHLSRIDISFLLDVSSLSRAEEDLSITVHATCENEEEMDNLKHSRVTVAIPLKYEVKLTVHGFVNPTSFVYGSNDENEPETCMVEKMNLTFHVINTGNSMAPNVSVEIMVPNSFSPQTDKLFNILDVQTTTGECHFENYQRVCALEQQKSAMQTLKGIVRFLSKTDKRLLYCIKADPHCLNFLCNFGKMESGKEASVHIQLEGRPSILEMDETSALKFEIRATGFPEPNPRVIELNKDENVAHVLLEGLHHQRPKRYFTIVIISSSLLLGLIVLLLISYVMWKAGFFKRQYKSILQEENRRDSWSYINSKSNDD
Sequence (P05556 21-798): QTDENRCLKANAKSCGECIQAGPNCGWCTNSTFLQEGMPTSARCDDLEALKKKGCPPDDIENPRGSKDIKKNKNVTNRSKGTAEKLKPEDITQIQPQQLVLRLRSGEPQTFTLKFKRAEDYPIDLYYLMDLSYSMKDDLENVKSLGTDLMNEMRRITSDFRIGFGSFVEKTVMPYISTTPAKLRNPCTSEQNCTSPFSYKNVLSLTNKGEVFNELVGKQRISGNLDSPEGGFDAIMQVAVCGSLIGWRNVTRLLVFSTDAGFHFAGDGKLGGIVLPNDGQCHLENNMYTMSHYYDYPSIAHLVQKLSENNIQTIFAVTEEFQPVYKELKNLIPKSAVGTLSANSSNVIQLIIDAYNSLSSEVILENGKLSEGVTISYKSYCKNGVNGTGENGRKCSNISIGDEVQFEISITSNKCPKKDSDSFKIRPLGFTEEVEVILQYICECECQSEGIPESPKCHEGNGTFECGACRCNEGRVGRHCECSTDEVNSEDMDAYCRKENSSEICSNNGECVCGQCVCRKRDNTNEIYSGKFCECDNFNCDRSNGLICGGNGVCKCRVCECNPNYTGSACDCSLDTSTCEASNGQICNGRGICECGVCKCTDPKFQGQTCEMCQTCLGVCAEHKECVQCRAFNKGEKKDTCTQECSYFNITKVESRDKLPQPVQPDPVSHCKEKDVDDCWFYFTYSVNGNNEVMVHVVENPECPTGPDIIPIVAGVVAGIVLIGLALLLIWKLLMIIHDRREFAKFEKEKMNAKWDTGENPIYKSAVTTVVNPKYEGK
measured attribute: IC50

{"molecule": "COc1ccc(CN2CCN(CC(C)C)CC2)c(OC)c1-c1cccc2c(C[C@H](NC(=O)C3(C(F)(F)F)CCN(CC(F)(F)F)CC3)C(=O)O)cccc12", "measured attribute": "IC50", "result value": "100 to 1000 nM"}
{"molecule": "Cn1c(=O)c(-c2cccc3c(C[C@H](NC(=O)c4c(F)cccc4F)C(=O)O)cccc23)c(C(F)(F)F)c2cc(CCN3CCCC3)ccc21", "measured attribute": "IC50", "result value": "100 to 1000 nM"}
{"molecule": "O=C(O)[C@H](Cc1cccc2c(-c3ncc(CN4CCOC(C(F)(F)F)C4)c4ccccc34)cccc12)NC(=O)C1(C(F)(F)F)CCN(CC(F)(F)F)CC1 (stereo partly drawn)", "measured attribute": "IC50", "result value": "> 1000 nM"}
{"molecule": "O=C(O)[C@H](Cc1cccc2c(-c3cccc4cnoc34)cccc12)NC(=O)C1(C(F)(F)F)CCN(CC(F)(F)F)CC1", "measured attribute": "IC50", "result value": "> 1000 nM"}
{"molecule": "COc1cccc(CCN2CCC[C@H](F)C2)c1-c1cccc2c(C[C@H](NC(=O)C3(C(F)(F)F)CCN(CC(F)F)CC3)C(=O)O)cccc12", "measured attribute": "IC50", "result value": "> 1000 nM"}
{"molecule": "COc1ccc(CN2CC(c3ccccc3)C2)c(OC)c1-c1cccc2c(C[C@H](NC(=O)C3(C(F)(F)F)CCN(CC(F)(F)F)CC3)C(=O)O)cccc12", "measured attribute": "IC50", "result value": "> 1000 nM"}
{"molecule": "O=C(O)[C@H](Cc1cccc2c(-c3ccc(CN4CCCCC4)cn3)cccc12)NC(=O)C1(C(F)(F)F)CCN(CC(F)F)CC1", "measured attribute": "IC50", "result value": "> 1000 nM"}
{"molecule": "CC[C@@H]1CCCN1Cc1cnc(-c2cccc3c(C[C@H](NC(=O)C4(C(F)(F)F)CCN(CC(F)F)CC4)C(=O)O)cccc23)c2ccccc12", "measured attribute": "IC50", "result value": "100 to 1000 nM"}
{"molecule": "O=C(O)[C@H](Cc1cccc2c(-c3ncc(CN4CCN(C5CC5)CC4)cc3C3CC3)cccc12)NC(=O)C1(C(F)(F)F)CCN(CC(F)(F)F)CC1", "measured attribute": "IC50", "result value": "100 to 1000 nM"}
{"molecule": "COc1ccc(CN2CCCC3(CCN(Cc4ccccc4)CC3)C2)c(OC)c1-c1cccc2c(C[C@H](NC(=O)C3(C(F)(F)F)CCN(CC(F)(F)F)CC3)C(=O)O)cccc12", "measured attribute": "IC50", "result value": "100 to 1000 nM"}
{"molecule": "COc1cc(C(F)(F)F)c(CN2CCCCC2)cc1-c1cccc2c(C[C@H](NC(=O)c3c(C)cccc3F)C(=O)O)cccc12", "measured attribute": "IC50", "result value": "> 1000 nM"}
{"molecule": "CN(C)CCc1ccc2c(c1)c(C(F)(F)F)c(-c1cccc3c(C[C@H](NC(=O)C4(C(F)(F)F)CCN(CC(F)(F)F)CC4)C(=O)O)cccc13)c(=O)n2C", "measured attribute": "IC50", "result value": "10 to 100 nM"}
